# system_under_test: EGFR L718V (Homo sapiens, UniProt P00533, L718V)
# Construct: expressed in transfected cells; host or cells: Ba/F3
# assay_protocol: Ba/F3 drug screening, Cell Titer Glo, IC50 Mut/WT
# Type: cell-based
# run_parameters: PACC; L718V; Ba/F3; 72 hours
metric_name: ratio of IC50 for cells with mutant EGFR to IC50 for cells with wildtype EGFR (Mut/WT)

Some solved entries appear below for comparison.
molecule	value_reported
CNC(=O)CN1CCC(Oc2cc3c(Nc4cccc(Cl)c4F)ncnc3cc2OC)CC1 [Sapatinib]	1.264
COc1cc2ncnc(Nc3cccc(Cl)c3F)c2cc1OC(=O)N1CCN(C)C[C@H]1C [AZD3759]	0.6898
CN(C)C/C=C/C(=O)Nc1cc2c(Nc3ccc(Cl)c(Br)c3)ncnc2cn1 [Tarlox-TKI]	1.421

In the following, a different molecule is considered.
Give its ratio of IC50 for cells with mutant EGFR to IC50 for cells with wildtype EGFR (Mut/WT) value. Item: COc1cc2ncnc(Nc3ccc(F)c(Cl)c3)c2cc1NC(=O)/C=C/CN1CCCCC1 [Dacomitinib]
0.1103

###

# system_under_test: EGFR L858R L718Q (Homo sapiens, UniProt P00533, L718Q/L858R)
# Construct: host or cells: Ba/F3
# assay_protocol: Ba/F3 drug screening, Cell Titer Glo, IC50 Mut/WT
# Assay type: cell-based
# run_parameters: PACC; L858R L718Q; Ba/F3; 72 hours
metric_name: ratio of IC50 for cells with mutant EGFR to IC50 for cells with wildtype EGFR (Mut/WT)
Quick one: just the number, no unit, thanks!

mol_smiles	system_under_test	value_reported
CN(C)C/C=C/C(=O)Nc1cc2c(Nc3ccc(Cl)c(Br)c3)ncnc2cn1	EGFR L858R L718Q (Homo sapiens, UniProt P00533, L718Q/L858R)	0.3655
COc1cc2ncnc(Nc3cccc(Cl)c3F)c2cc1OC(=O)N1CCN(C)C[C@H]1C	EGFR L858R L718Q (Homo sapiens, UniProt P00533, L718Q/L858R)	0.3765
COc1cc2ncnc(Nc3ccc(F)c(Cl)c3)c2cc1NC(=O)/C=C/CN1CCCCC1	EGFR L858R L718Q (Homo sapiens, UniProt P00533, L718Q/L858R)	0.051

Give its ratio of IC50 for cells with mutant EGFR to IC50 for cells with wildtype EGFR (Mut/WT) value. Item: CNC(=O)CN1CCC(Oc2cc3c(Nc4cccc(Cl)c4F)ncnc3cc2OC)CC1
0.1961

###

# system_under_test: EGFR L858R/T790M (Homo sapiens, UniProt P00533, L858R/T790M)
# Construct: expressed in transfected cells; host or cells: Ba/F3
# assay_protocol: Ba/F3 drug screening, Cell Titer Glo, IC50 Mut/WT
# Format: cell-based
# run_parameters: T790M-like-3S, 72 hours
// values below are reported ratio of IC50 for cells with mutant EGFR to IC50 for cells with wildtype EGFR (Mut/WT)
Quick one: just the number, no unit, thanks!

mol_smiles	value_reported
C=CC(=O)Nc1cccc(Oc2nc(Nc3ccc(N4CCN(C)CC4)cc3)nc3ccsc23)c1	0.0007936
C=CC(=O)Nc1cc(Nc2nccc(-n3cc(CN(C)C)c(-c4ccccc4)n3)n2)c(OC)cc1N1CCOCC1	0.0336

Give its ratio of IC50 for cells with mutant EGFR to IC50 for cells with wildtype EGFR (Mut/WT) value. Item: C=CC(=O)Nc1cc(Nc2nccc(-c3c[nH]c4ccccc34)n2)c(OC)cc1N(C)CCN(C)C
0.1777

Give its ratio of IC50 for cells with mutant EGFR to IC50 for cells with wildtype EGFR (Mut/WT) value. Item: CNC(=O)CN1CCC(Oc2cc3c(Nc4cccc(Cl)c4F)ncnc3cc2OC)CC1
38.86
